Reference source for all entries: patent US9296778B2

# Tested on: HCV genotype 1b replicon
# Protocol details: HCV Replicon Assay
# Format: cell-based
# Measurement context: Zluc cells (Huh-7-derived, HCV genotype 1b replicon, luciferase reporter), 72 hours; read-out: HCV Replicon EC50
pEC50: −log10 of the molar value.
Field: pEC50. Provide a value for each of the compounds that follow.

Request the reported pEC50 associated with CCOc1nc(N)nc2c1ncn2[C@@H]1O[C@@H]2COP(=O)(OC[C@H](C)NC(=O)OC)O[C@H]2[C@@]1(C)F (single isomer, unassigned; diastereomer 2) [Compound 9 Diastereomer 2]
> 6.60

Request the reported pEC50 associated with CCOc1nc(N)nc2c1ncn2[C@@H]1O[C@@H]2COP(=O)(OCCSC(=O)C(C)(C)CO)O[C@H]2[C@@]1(C)OC(C)=O (single isomer, unassigned; diastereomer 1) [Compound 16 Diastereomer 1]
> 6.60

* * *

# Protocol details: Liver pharmacokinetics following a single oral dose in CD-1 mice
# Format: in vivo
# Measurement context: single oral dose 25 mg/kg in PEG 200, CD-1 male mice; given at 1 μmol/kg; 25 mg/kg
Please respond with condition met when measured Ms Liver 2′-MeGTP AUC is strictly beneath 600 pmol · hr/g at 1 μmol/kg, and with condition not met in all other cases.

Hello, is Ms Liver 2′-MeGTP AUC of the following molecule strictly smaller than 600 pmol · hr/g at 1 μmol/kg? CCOc1nc(N)nc2c1ncn2[C@@H]1O[C@@H]2COP(=O)(OCCCC(=O)OC(C)C)O[C@H]2[C@@]1(C)O (single isomer, unassigned) [Compound 1 Diastereomer 1]
condition met

Hello, is Ms Liver 2′-MeGTP AUC of the following molecule strictly smaller than 600 pmol · hr/g at 1 μmol/kg? CC(C)OC(=O)CCCOP1(=O)OC[C@H]2O[C@@H](n3cnc4c(=O)[nH]c(N)nc43)[C@](C)(F)[C@@H]2O1 (single isomer, unassigned; diastereomer 2) [Compound 6 Diastereomer 2]
condition met

Hello, is Ms Liver 2′-MeGTP AUC of the following molecule strictly smaller than 600 pmol · hr/g at 1 μmol/kg? CCOc1nc(N)nc2c1ncn2[C@@H]1O[C@@H]2COP(=O)(OCCSC(=O)C(C)(C)CO)O[C@H]2[C@@]1(C)O (single isomer, unassigned) [Compound 4 Diastereomer 2]
condition not met

Hello, is Ms Liver 2′-MeGTP AUC of the following molecule strictly smaller than 600 pmol · hr/g at 1 μmol/kg? CCOc1nc(N)nc2c1ncn2[C@@H]1O[C@@H]2COP(=O)(OCCCC(=O)OC(C)C)O[C@H]2[C@@]1(C)O (single isomer, unassigned) [Compound 1 Diastereomer 2]
condition not met

Hello, is Ms Liver 2′-MeGTP AUC of the following molecule strictly smaller than 600 pmol · hr/g at 1 μmol/kg? CC(C)OC(=O)CCCOP1(=O)OC[C@H]2O[C@@H](n3cnc4c(=O)[nH]c(N)nc43)[C@](C)(F)[C@@H]2O1 (single isomer, unassigned; diastereomer 1) [Compound 6 Diastereomer 1]
condition met

* * *

# Tested on: fresh human hepatocytes
# Protocol details: Release of active metabolite in fresh human hepatocytes
# Type: in vitro ADME
# Measurement context: 10 μM compound, fresh human hepatocytes
Please respond with Y when measured FHH TP Cmax is strictly beneath 100 pmol/mill cells, and with N in all other cases.

Hello, is FHH TP Cmax of the following compound strictly smaller than 100 pmol/mill cells? CCOc1nc(N)nc2c1ncn2[C@@H]1O[C@@H]2COP(=O)(OCCSSC(C)(C)C)O[C@H]2[C@@]1(C)F (single isomer, unassigned) [Compound 24 Diastereomer 2]
N

Hello, is FHH TP Cmax of the following compound strictly smaller than 100 pmol/mill cells? CCOc1nc(N)nc2c1ncn2[C@@H]1O[C@@H]2COP(=O)(OCCC(=O)OC(C)C)O[C@H]2[C@@]1(C)O (single isomer, unassigned; diastereomer 1) [Compound 22 Diastereomer 1]
Y

Hello, is FHH TP Cmax of the following compound strictly smaller than 100 pmol/mill cells? CCOc1nc(N)nc2c1ncn2[C@@H]1O[C@@H]2COP(=O)(OCCCC(=O)OC(C)C)O[C@H]2[C@@]1(C)O (single isomer, unassigned) [Compound 1 Diastereomer 2]
N

Hello, is FHH TP Cmax of the following compound strictly smaller than 100 pmol/mill cells? CCOc1nc(N)nc2c1ncn2C1OC2COP(=O)(Oc3ccc(CC(NC(=O)OC)C(=O)OC(C)C)cc3)OC2C1(C)F (single isomer, unassigned; diastereomer 2) [Compound 13 Diastereomer 2]
Y

Hello, is FHH TP Cmax of the following compound strictly smaller than 100 pmol/mill cells? CCOC(=O)CCCOP1(=O)OC[C@H]2O[C@@H](n3cnc4c(OC)nc(N)nc43)[C@](C)(O)[C@@H]2O1 (single isomer, unassigned; diastereomer 1) [Compound 25 Diastereomer 1]
N

Hello, is FHH TP Cmax of the following compound strictly smaller than 100 pmol/mill cells? CCOc1nc(N)nc2c1ncn2[C@@H]1O[C@@H]2COP(=O)(OCCSC(=O)C(C)(C)CO)O[C@H]2[C@@]1(C)F (single isomer, unassigned) [Compound 5 Diastereomer 2]
N

Hello, is FHH TP Cmax of the following compound strictly smaller than 100 pmol/mill cells? CCOc1nc(N)nc2c1ncn2[C@@H]1O[C@@H]2COP(=O)(OCCSC(=O)C(C)(C)CO)O[C@H]2[C@@]1(C)O (single isomer, unassigned) [Compound 4 Diastereomer 2]
N

Hello, is FHH TP Cmax of the following compound strictly smaller than 100 pmol/mill cells? CCOc1nc(N)nc2c1ncn2[C@@H]1O[C@@H]2COP(=O)(OCCSC(=O)C(C)(C)CO)O[C@H]2[C@@]1(C)O (single isomer, unassigned) [Compound 4 Diastereomer 1]
N

Hello, is FHH TP Cmax of the following compound strictly smaller than 100 pmol/mill cells? CCOc1nc(N)nc2c1ncn2[C@@H]1O[C@@H]2COP(=O)(OCCCC(=O)OC(C)C)O[C@H]2[C@@]1(C)O (single isomer, unassigned) [Compound 1 Diastereomer 1]
Y

Hello, is FHH TP Cmax of the following compound strictly smaller than 100 pmol/mill cells? CCOc1nc(N)nc2c1ncn2[C@@H]1O[C@@H]2COP(=O)(OCCSC(=O)C(C)(C)CO)O[C@H]2[C@@]1(C)F (single isomer, unassigned) [Compound 5 Diastereomer 1]
N

Hello, is FHH TP Cmax of the following compound strictly smaller than 100 pmol/mill cells? CCOc1nc(N)nc2c1ncn2[C@@H]1O[C@@H]2COP(=O)(OC[C@H](NC(=O)OC)C(=O)OC(C)C)O[C@H]2[C@@]1(C)F (stereo partly shown)
Y

Hello, is FHH TP Cmax of the following compound strictly smaller than 100 pmol/mill cells? CCOc1nc(N)nc2c1ncn2C1OC2COP(=O)(Oc3ccc(CC(NC(=O)OC)C(=O)OC(C)C)cc3)OC2C1(C)F (single isomer, unassigned; diastereomer 1) [Compound 13 Diastereomer 1]
Y

Hello, is FHH TP Cmax of the following compound strictly smaller than 100 pmol/mill cells? CCOc1nc(N)nc2c1ncn2C1OC2COP(=O)(OCC(NC(=O)OC)C(=O)OC(C)C)OC2C1(C)O (single isomer, unassigned; diastereomer 1) [Compound 14 Diastereomer 1]
Y

Hello, is FHH TP Cmax of the following compound strictly smaller than 100 pmol/mill cells? CCOc1nc(N)nc2c1ncn2[C@@H]1O[C@@H]2COP(=O)(OCCCC(=O)OC(C)C)O[C@H]2[C@@]1(C)F (single isomer, unassigned) [Compound 20 Diastereomer 1]
Y

Hello, is FHH TP Cmax of the following compound strictly smaller than 100 pmol/mill cells? CCOc1nc(N)nc2c1ncn2[C@@H]1O[C@@H]2COP(=O)(OCCCC(=O)OC(C)C)O[C@H]2[C@@]1(C)F (single isomer, unassigned; diastereomer 2) [Compound 3 Diastereomer 2]
N

* * *

# Tested on: HCV genotype 1b replicon
# Protocol details: HCV Replicon Assay
# Format: cell-based
# Measurement context: Zluc cells (Huh-7-derived, HCV genotype 1b replicon, luciferase reporter), 72 hours; read-out: HCV Replicon EC50
pEC50: −log10 of the molar value.
Field: pEC50. Provide a value for each of the molecules that follow.

Request the reported pEC50 associated with CCOC(=O)CCCOP1(=O)OC[C@H]2O[C@@H](n3cnc4c(OC)nc(N)nc43)[C@](C)(O)[C@@H]2O1 (stereo partly drawn)
> 6.60

Request the reported pEC50 associated with CCOc1nc(N)nc2c1ncn2C1OC2COP(=O)(Oc3ccc(CC(NC(=O)OC)C(=O)OC(C)C)cc3)OC2C1(C)F (single isomer, unassigned; diastereomer 1) [Compound 13 Diastereomer 1]
> 6.60

Request the reported pEC50 associated with CCOc1nc(N)nc2c1ncn2C1OC2COP(=O)(OCC(NC(=O)OC)C(=O)OC(C)C)OC2C1(C)O (single isomer, unassigned; diastereomer 1) [Compound 14 Diastereomer 1]
> 6.60

* * *

# Protocol details: Stability in simulated intestinal fluid
# Format: in vitro ADME
# Measurement context: 100 μM, 2 hours at 37° C., percent of the peak area at time zero
Assay metric: Stability SIF (%)
State just the number; it will be interpreted in %.

Request the reported Stability SIF associated with CCOc1nc(N)nc2c1ncn2[C@@H]1O[C@@H]2COP(=O)(OCCSC(=O)C(C)(C)CO)O[C@H]2[C@@]1(C)F (single isomer, unassigned) [Compound 5 Diastereomer 2]
77

Request the reported Stability SIF associated with CCOc1nc(N)nc2c1ncn2C1OC2COP(=O)(Oc3ccc(CC(NC(=O)OC)C(=O)OC(C)C)cc3)OC2C1(C)F (single isomer, unassigned; diastereomer 2) [Compound 13 Diastereomer 2]
72

Request the reported Stability SIF associated with CCOc1nc(N)nc2c1ncn2[C@@H]1O[C@@H]2COP(=O)(OCCSSC(C)(C)C)O[C@H]2[C@@]1(C)F (single isomer, unassigned) [Compound 24 Diastereomer 2]
47

Request the reported Stability SIF associated with CCOc1nc(N)nc2c1ncn2[C@@H]1O[C@@H]2COP(=O)(OCCCC(=O)OC(C)C)O[C@H]2[C@@]1(C)O (single isomer, unassigned) [Compound 1 Diastereomer 1]
105

Request the reported Stability SIF associated with CCOC(=O)CCOP1(=O)OC[C@H]2O[C@@H](n3cnc4c(OCC)nc(N)nc43)[C@](C)(F)[C@@H]2O1 (single isomer, unassigned; diastereomer 1) [Compound 8 Diastereomer 1]
96

Request the reported Stability SIF associated with CCOC(=O)CCOP1(=O)OC[C@H]2O[C@@H](n3cnc4c(OCC)nc(N)nc43)[C@](C)(F)[C@@H]2O1 (single isomer, unassigned; diastereomer 2) [Compound 8 Diastereomer 2]
94

Request the reported Stability SIF associated with CCOc1nc(N)nc2c1ncn2C1OC2COP(=O)(OCC(NC(=O)OC)C(=O)OC(C)C)OC2C1(C)O (single isomer, unassigned; diastereomer 1) [Compound 14 Diastereomer 1]
88

Request the reported Stability SIF associated with CCOc1nc(N)nc2c1ncn2[C@@H]1O[C@@H]2COP(=O)(OCCCC(=O)OC(C)C)O[C@H]2[C@@]1(C)F (single isomer, unassigned) [Compound 20 Diastereomer 1]
95

Request the reported Stability SIF associated with CCOc1nc(N)nc2c1ncn2[C@@H]1O[C@@H]2COP(=O)(OCCCC(=O)OC(C)C)O[C@H]2[C@@]1(C)F (single isomer, unassigned; diastereomer 1) [Compound 3 Diastereomer 1]
92

Request the reported Stability SIF associated with CCOC(=O)COP1(=O)OC[C@H]2O[C@@H](n3cnc4c(OCC)nc(N)nc43)[C@](C)(F)[C@@H]2O1 (single isomer, unassigned; diastereomer 1) [Compound 7 Diastereomer 1]
50
